- Tested on: biotinyl-Leu-oxazolone
- EXPERIMENTAL PROTOCOL: self-aminoacylation, catalytic enhancement (BLO) (fold over background); higher = more active; k-Seq, kA / k0A0; sequences stand for … in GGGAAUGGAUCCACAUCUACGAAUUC…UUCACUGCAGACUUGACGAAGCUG
Fewer inactive variants are shown than the library holds.
MEASURED PROPERTY: self-aminoacylation

Use these answered entries as a reference point.
CUUCUUCAAACCAUCGGUCUG [Fam1A.1 aminoacylation ribozyme variant]    0.722
CCACACUUUAAGCAAUCGGGC [Fam1B.1 aminoacylation ribozyme variant]    1.65
CUACUGCCAACAAUCGGUCUG [Fam1A.1 aminoacylation ribozyme variant]    0.64

Could you now consider this next sequence?
Recorded self-aminoacylation (sequence CUACUUCAAACUAUCGGUUUG [Fam1A.1 aminoacylation ribozyme variant] ): 0.829

* * *

- Test system: biotinyl-Phe-oxazolone
- EXPERIMENTAL PROTOCOL: self-aminoacylation, catalytic enhancement (BFO) (fold over background); higher = more active; k-Seq, kA / k0A0; sequences stand for … in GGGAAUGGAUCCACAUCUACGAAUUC…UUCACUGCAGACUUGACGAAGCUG
Variants at the floor of the assay were thinned out.
MEASURED PROPERTY: self-aminoacylation
Form rule: numeric answer, no unit written next to it.

Some sequences with known self-aminoacylation results, for comparison:
AUUACCCUGGUCAUAGACUGA [Fam2.1 aminoacylation ribozyme variant]    0.776
CCACACUUCAAGCACUUGGUC [Fam1B.1 aminoacylation ribozyme variant]    1.03
CAACUUCAAUCAAUCGGUCUG [Fam1A.1 aminoacylation ribozyme variant]    35.7
AUUACGCUGGUCAUCGAGUGG [Fam2.1 aminoacylation ribozyme variant]    1.66
AUUAUCGUGGUCAUCGAGUGA [Fam2.1 aminoacylation ribozyme variant]    27.7

In plain terms, CCACACUUCAAGCAAGCGGGC [Fam1B.1 aminoacylation ribozyme variant] has a documented self-aminoacylation of 6.38

Sample AUUGCCCUGGUCAUCGAGUAA [Fam2.1 aminoacylation ribozyme variant] ; self-aminoacylation observed: 28.4

Given item CUACUCCAUACAAUCGGUCUG [Fam1A.1 aminoacylation ribozyme variant] , the value recorded as its self-aminoacylation is 0.859

* * *

- Test system: biotinyl-Leu-oxazolone
- EXPERIMENTAL PROTOCOL: self-aminoacylation, catalytic enhancement (BLO) (fold over background); higher = more active; k-Seq, kA / k0A0; sequences stand for … in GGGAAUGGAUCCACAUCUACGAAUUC…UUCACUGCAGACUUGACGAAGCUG
Variants at the floor of the assay were thinned out.
Below, each entry is listed with its recorded self-aminoacylation.
A bare number is all that is needed in reply.

AUUACCCUGGUCACCCAGUGA [Fam2.1 aminoacylation ribozyme variant]    6.87
CCACACUUUAAGAAAUCGGUC [Fam1B.1 aminoacylation ribozyme variant]    0.782
CCGCGCUUCAAGCAAUCGGUC [Fam1B.1 aminoacylation ribozyme variant]    3.16
UCACACUUCAAGCAAUCGGUG [Fam1B.1 aminoacylation ribozyme variant]    7.95
CUACUUCCAACAAUAGGUCUG [Fam1A.1 aminoacylation ribozyme variant]    0.578

Value of measured self-aminoacylation for the entry CCACAGUUCAAGCAAUCGGUG [Fam1B.1 aminoacylation ribozyme variant] : 5.44

Looking up AUCCACCUAGGUCAUCGAGUG [Fam2.2 aminoacylation ribozyme variant] , I found its self-aminoacylation recorded as 10.3

// recorded self-aminoacylation for AUUACCCUGGUCCUCGAGUAA [Fam2.1 aminoacylation ribozyme variant] : 1.33

These measurements were taken from the supplement of paper PMC9233669.
